From: patent US6423752B1

// reported inhibition at 10 µM for each item listed
# System: ileum
# method: Smooth muscle effects: CaCl2 induced contractions of ileum
# Set-up: species or system Guinea pigs
# run-conditions: Cavia porcellus, 10^−5 M; guinea pig ileum; DMSO effect subtracted; read-out: Percentage Inhibition of CaCl2 Induced Contractions
assay-endpoint: inhibition at 10 µM (%)

>>> result_value("O=C1CC(NC2CCc3ccccc32)c2ccccc21 (centres unmarked) [Compound 5C3, 3-(N-1-indanylamino)-indan-1-one]")
30
>>> result_value("CC(=O)N(C1Cc2ccccc2C1)C1CC(=O)c2ccccc21 (centres unmarked) [Compound 6C11, N-2-Indanyl-N-3-indan-1-onylethanamide]")
12.5
>>> result_value("CC(=O)N(C1CCc2ccccc21)C1CC(=O)c2ccccc21 (centres unmarked) [Compound 5C9, N-1-Indanyl-N-3-indan-1-onylethanamide]")
18.3
>>> result_value("CN(C1CCc2ccccc21)C1CC(=O)c2ccccc21 (centres unmarked) [Compound 5C5]")
10.5
>>> result_value("C=CCN(C1CC(=O)c2ccccc21)[C@H]1CCc2ccccc21 (some centres unmarked) [5C6 TS]")
19.4
>>> result_value("CN(C1Cc2ccccc2C1)C1CC(=O)c2ccccc21 (centres unmarked) [Compound 6C6]")
22.9
>>> result_value("C=CCN(C1CCc2ccccc21)C1CC(=O)c2ccccc21 (centres unmarked) [5C6 BR]")
31.6
>>> result_value("OC1CC(NC2CCc3ccccc32)c2ccccc21 (centres unmarked) [Compound 5C4, 3-(N-1-indanylamino)indan-1-ol]")
19.1

* * *

# Test system: ileum
# method: Smooth muscle effects: CaCl2 induced contractions of ileum
# Design: species or system Guinea pigs
# run-conditions: Cavia porcellus, read-out: Percentage Inhibition of CaCl2 Induced Contractions
assay-endpoint: inhibition at 0.1 µM

>>> result_value("C=CCN(C1Cc2ccccc2C1)C1CC(=O)c2ccccc21 (stereo not shown) [Compound 6C7]")
"3.15%"
>>> result_value("O=C1CC(N(Cc2ccccc2)C2CCc3ccccc32)c2ccccc21 (stereo not shown) [Compound 5C7]")
"-0.44%"
>>> result_value("C=CCN(C1CCc2ccccc21)C1CC(=O)c2ccccc21 (stereo not shown) [Compound 5C6]")
"0.02%"
>>> result_value("O=C1CC(N(Cc2ccccc2)C2Cc3ccccc3C2)c2ccccc21 (stereo not shown) [Compound 6C8]")
"2.94%"

* * *

# System: ileum
# method: Smooth muscle effects: CaCl2 induced contractions of ileum
# Set-up: species or system Guinea pigs
# run-conditions: Cavia porcellus, 3 × 10^−6 M; guinea pig ileum; DMSO effect subtracted; read-out: Percentage Inhibition of CaCl2 Induced Contractions
// reported inhibition at 3 µM for each item listed
assay-endpoint: inhibition at 3 µM (%)

>>> result_value("OC1CC(NC2CCc3ccccc32)c2ccccc21 (stereo not drawn) [Compound 5C4, 3-(N-1-indanylamino)indan-1-ol]")
5.08
>>> result_value("CC(=O)N(C1Cc2ccccc2C1)C1CC(=O)c2ccccc21 (stereo not drawn) [Compound 6C11, N-2-Indanyl-N-3-indan-1-onylethanamide]")
8
>>> result_value("CN(C1CCc2ccccc21)C1CC(=O)c2ccccc21 (stereo not drawn) [Compound 5C5]")
3.56
